Kindly supply the reported inhibition values for the records listed here.
Tested on: Hepatitis C virus NS3 helicase
Assay Remarks: HCV NS3 helicase inhibitors, primary screen, biochemical, fluorescence polarization, LOPAC1280 library (AID 687035)
Condition: Purified HCV NS3 helicase, Cy5-dT15 ssDNA binding fluorescence polarization; hits give high values; concentration not given here
The reply should be a number in %, with the unit left off.

Query O=c1[nH]cnc2[nH]ncc12 yields inhibition of -4

// inhibition lookup, compound = CCCCNC(=O)NS(=O)(=O)c1ccc(C)cc1 , result: -5

Form field inhibition, entry NNCCc1ccccc1 : -1

Looking up CC(C)NCC(O)c1cc(O)cc(O)c1 (configuration not stated) , I found its inhibition recorded as -4

Consider CN(C)CCOC(c1ccccc1)c1ccccc1 . Its measured inhibition is -1

// CN1C(C(=O)Nc2ccccn2)=C(O)c2ccccc2S1(=O)=O : inhibition value = -1

Per the records, this compound ( O=c1[nH]cc(F)c(=O)[nH]1 ) has inhibition equal to -1

###

Please respond with reported inhibition for every item in the list.
Tested on: Hepatitis C virus NS3 helicase
Assay Remarks: HCV NS3 helicase inhibitors, primary screen, biochemical, fluorescence polarization, LOPAC1280 library (AID 687035)
Condition: Purified HCV NS3 helicase, Cy5-dT15 ssDNA binding fluorescence polarization; hits give high values; concentration not given here
// units = %; emit number, no label

Record CN(C)c1cc2c(Nc3ccc4c(cnn4Cc4ccccc4)c3)ncnc2cn1 , field inhibition: -1

Lab note: CN(C)CCCN1c2ccccc2Sc2ccc(Cl)cc21 gave inhibition of -2

The reported value for COc1ccc(Cl)cc1C(=O)NCCc1ccc(S(=O)(=O)NC(=O)NC2CCCCC2)cc1 in terms of inhibition is 1

Record summary for Cc1ccc(S(=O)(=O)NC(=O)NN2CCCCCC2)cc1 : reported inhibition = -1

inhibition reading for OCCN(CCO)c1nc(N2CCCCC2)c2nc(N(CCO)CCO)nc(N3CCCCC3)c2n1 : -2

// recorded inhibition for CN(C)CCCN1c2ccccc2CCc2ccc(Cl)cc21 : -4

response.value for CC1=C(/C=C/C(C)=C/C=C/C(C)=C/C(=O)O)C(C)(C)CCC1 (field: inhibition) = -1

Reported inhibition ( CN(C)CC/C=C1\c2ccccc2COc2ccccc21 ) = -5

CC[C@H]1CN2CCc3cc(OC)c(OC)cc3[C@@H]2C[C@@H]1C[C@H]1NCCc2cc(OC)c(OC)cc21 has a reported inhibition of 2

The compound listed as CCCNC(C)C(=O)Nc1ccccc1C (centres undefined) has a reported inhibition of -1

Recorded result, CC(=O)OCC(=O)[C@@]1(O)CC[C@H]2[C@@H]3CCC4=CC(=O)CC[C@]4(C)[C@H]3C(=O)C[C@@]21C , inhibition: -3

The reported value for Cc1ccccc1C(OCCN(C)C)c1ccccc1 (centres undefined) in terms of inhibition is -2

Record CC(C)Cc1ccc(C(C)C(=O)O)cc1 (centres undefined) , field inhibition: -2

Sure, the documented inhibition for NC(=O)N1c2ccccc2C=Cc2ccccc21 is -1

Sure, the documented inhibition for CC(C)NCC(O)c1ccc(O)c(O)c1 (centres undefined) is -3

The measured inhibition associated with NCCc1ccc(O)c(O)c1 reads -4

Reported inhibition for c1ccc([C@H]2CN3CCSC3=N2)cc1 was -1

Entry under test: CCC1(c2ccccc2)C(=O)NCNC1=O . Its inhibition was 1

Field inhibition (entry CCN(CC)CCOC(=O)C1(C2CCCCC2)CCCCC1 ) reads -4

Memo: COc1ccc([C@@H]2Sc3ccccc3N(CCN(C)C)C(=O)[C@@H]2OC(C)=O)cc1 , reported inhibition: -1

Note to self: inhibition recorded for CC(=O)Nc1nnc(S(N)(=O)=O)s1 was -1

Lab note: CC12CC3CC(C)(C1)CC(N)(C3)C2 gave inhibition of -2

Reported inhibition of Cc1nc2ccccn2c(=O)c1CCN1CCC(C(=O)c2ccc(F)cc2)CC1 : -3

Documented inhibition of CNCCCC12CCC(c3ccccc31)c1ccccc12 : -6
